Test system: MDA-MB-435
Assay: NCI tumour cell line growth inhibition, 48 h
Active and inactive are the calls of the source. Rule as the data show it: active = GI50 up to about 1.1 µM and inactive = higher.
# reported GI50; entries follow

[[record]]
structure_string = "O=c1[nH]c(=S)[nH]cc1CN1CCOCC1"
reported_value = "> 100 µM (inactive)"

[[record]]
structure_string = "COc1c(-c2cccs2)oc2c(CC(=O)O)cccc2c1=O"
reported_value = "> 100 µM (inactive)"


As a next step, examine the molecule that follows.
So what GI50 did `O=C(/C=C/c1ccsc1)c1ccc(Cl)cc1` get with MDA-MB-435?
41.8 µM (inactive)

====

# reported GI50; entries follow
Tested on: OVCAR-3
Test: NCI tumour cell line growth inhibition, 48 h
Active and inactive are the calls of the source. Rule as the data show it: active = GI50 up to about 1.1 µM and inactive = higher.

Can you share its GI50? I mean this compound: O=C(NN1C(=O)C(Cl)C1c1ccc(O)cc1)c1ccccc1O (centres undefined)
16.7 µM (inactive)

Can you share its GI50? I mean this compound: `Cc1ccccc1[P+](C)(c1ccccc1C)c1ccccc1C`
7.94 µM (inactive)

Can you share its GI50? I mean this compound: `COc1ccc2c(c1)c1c(n2CCN2CCCCC2)-c2ccccc2CC1`
18.3 µM (inactive)

Can you share its GI50? I mean this compound: `CCN(CC)CC(=O)/C=C/c1ccc(C)cc1`
19.9 µM (inactive)

Can you share its GI50? I mean this compound: O=C(CC1(O)C(=O)Nc2c(Cl)ccc(Cl)c21)c1ccc(Cl)cc1Cl (centres undefined)
16.2 µM (inactive)

====

Tested on: OVCAR-3
Assay: NCI tumour cell line growth inhibition, 48 h
The source made the active and inactive calls. No stated cut-off is given here; in the data, active = GI50 up to about 1.1 µM and inactive = higher.
# reported GI50; entries follow

[[record]]
molecule = "CC(=O)c1ccc(-c2oc(-c3ccccc3)cc2-c2ccc3c(c2)OCO3)s1"
target_or_system = "OVCAR-3"
reported_value = "> 100 µM (inactive)"


Can you share its GI50? I mean this molecule: `CN1C/C(=C\c2cccs2)C(=O)/C(=C/c2cccs2)C1`
29.3 µM (inactive)

Can you share its GI50? I mean this molecule: `CN(C)/N=C(/CC(O)(C(F)(F)F)C(F)(F)F)c1ccc([N+](=O)[O-])cc1`
> 100 µM (inactive)

Can you share its GI50? I mean this molecule: Cc1cc2c(cc1-c1cc3c(cc1C)C(C(C)C)=C(O)C(=O)/C3=C\NCC1CCCN3CCCCC13)/C(=C/NCC1CCCN3CCCCC13)C(=O)C(O)=C2C(C)C (centres undefined)
3.01 µM (inactive)

Can you share its GI50? I mean this molecule: `O=C(Nn1c(-c2ccccc2)nc2ccccc2c1=O)c1ccc([N+](=O)[O-])cc1`
> 100 µM (inactive)

Can you share its GI50? I mean this molecule: `O=S1(=O)N=C(NCc2c[nH]c3ccccc23)N(c2ccccc2)c2ccncc21`
> 100 µM (inactive)

Can you share its GI50? I mean this molecule: COc1cccc(N2C(=O)C3CC(CC(C)(C)C)c4c([nH]c5ccccc45)C3C2=O)c1 (centres undefined)
> 10 µM (inactive)

Can you share its GI50? I mean this molecule: N#Cc1c(N2CCC(O)C2)c2ccccc2n2c1nc1ccccc12 (centres undefined)
> 100 µM (inactive)

Can you share its GI50? I mean this molecule: `O=C1C[C@H](c2ccc(O)c(O)c2)Oc2cc(O)cc(O)c21`
> 100 µM (inactive)

Can you share its GI50? I mean this molecule: `O=C(N/N=C/c1ccc([N+](=O)[O-])cc1)c1cccc2nc3ccccc3nc12`
> 100 µM (inactive)

Can you share its GI50? I mean this molecule: `O=C(O)c1nn[nH]c1S`
> 100 µM (inactive)

Can you share its GI50? I mean this molecule: CCC(N)(C(=O)O)C(C)C (centres undefined)
> 100 µM (inactive)

Can you share its GI50? I mean this molecule: `CC(=O)N[C@@H](Cc1ccc(O)cn1)C(=O)NCc1cccc(Cl)c1`
> 100 µM (inactive)

Can you share its GI50? I mean this molecule: C[N+](C)(C)CC1CCCCC1O (centres undefined)
> 100 µM (inactive)
